- ASSAYED_TARGET: NS3 protease (dengue virus type 3, UniProt A0A0B5JFF1)
- Sequence (A0A0B5JFF1 whole entry): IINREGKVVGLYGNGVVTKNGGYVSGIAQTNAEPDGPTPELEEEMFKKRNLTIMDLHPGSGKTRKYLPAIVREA
- EXPERIMENT: Functional biochemical assay to identify treatments for viral infectious disease that targets Dengue virus type 3 NS2B-NS3 protease. Utilizing a direct enzyme activity measurement method, reading the fluorescence intensity is used to characterize the relative potency of inhibitors as IC50.
Assign labels as follows, please: Criterion met for IC50 below 10 µM; Criterion not met for IC50 equal to or exceeding 10 µM.

Study these solved cases before continuing.
O=C(Nc1cc(Cl)cc([C@H]2C[C@@H]2c2cccc(C3CCNCC3)c2)c1)OCc1ccccc1 ... Criterion met
O=C(Nc1ccc2c(c1)CNC2)c1cc(Cl)cc2cn[nH]c12 ... Criterion not met
COc1cc(-c2cc(NC(=O)c3cc(F)cc4[nH]ncc34)cc3c2CNC3)ccn1 ... Criterion not met
N[C@H]1CC[C@H](c2ccc(NC(=O)c3cc(Cl)cc(NC(=O)OCc4ccccc4)c3)cc2)C1 ... Criterion met
O=C(Nc1ccc2c(c1)CNC2)c1cc(F)cc2[nH]c(-c3cccc(F)c3)nc12 ... Criterion met

Lab note: confirm whether the reported IC50 for this compound is below 10 µM, equality not counting. compound: COc1cccc(-c2nc3c(C(=O)Nc4ccc5c(c4)CNC5)cc(F)cc3[nH]2)c1
Criterion met

Lab note: confirm whether the reported IC50 for this compound is below 10 µM, equality not counting. compound: O=C(Nc1cc2c(c(C3=CCS(=O)(=O)CC3)c1)CNC2)c1cc(F)cc2[nH]ncc12
Criterion not met

Lab note: confirm whether the reported IC50 for this compound is below 10 µM, equality not counting. compound: O=C(Nc1ccc2c(c1)CNC2)c1cc(F)cc2[nH]ncc12
Criterion not met

Lab note: confirm whether the reported IC50 for this compound is below 10 µM, equality not counting. compound: CNC(=O)[C@H](Nc1cccc(CN)c1)c1cc(Cl)cc(NC(=O)OCc2ccccc2)c1
Criterion not met

###

Measured log10 of IC50 by item
- ASSAYED_TARGET: NS3 protease (dengue virus type 3, UniProt A0A0B5JFF1)
- EXPERIMENT: Functional biochemical assay to identify treatments for viral infectious disease that targets Dengue virus type 3 NS2B-NS3 protease. Utilizing a direct enzyme activity measurement method, reading the fluorescence intensity is used to characterize the relative potency of inhibitors as IC50.
All values: base-10 log of IC50 in µM.

A selection of reference data follows.
O=C(NC1CCOCC1)[C@H](Nc1ccc2c(c1)CNC2)c1cc(Cl)cc(C2CC2)c1 ... 1.73
O=C(Nc1ccc2c(c1)CNC2)c1ccc2c(C3=CCNCC3)csc2c1 ... 1.74
COCCNC(=O)[C@H](Nc1ccc2c(c1)CNC2)c1cc(Cl)cc(C2CC2)c1 ... 1.80

Find the recorded log10 of IC50 belonging to CC(C)CNC(=O)c1cc(Cl)ccc1NS(=O)(=O)c1ccc(Oc2ccccc2Cl)cc1 and report it.
1.08

Find the recorded log10 of IC50 belonging to O=C(Nc1ccc2c(c1)CNC2)c1cc(Br)cc2[nH]c(=O)[nH]c12 and report it.
1.33

###

- ASSAYED_TARGET: UniProtKB A0A0B5JFF1
- EXPERIMENT: Functional biochemical assay to identify treatments for viral infectious disease that targets Dengue virus type 3 NS2B-NS3 protease. Utilizing a direct enzyme activity measurement method, reading the fluorescence intensity is used to characterize the relative potency of inhibitors as IC50.
Measured IC50 by item
Write down the numeric answer in µM and omit the unit.

Find the recorded IC50 belonging to Cc1cccc(-c2nc3c(C(=O)Nc4ccc5c(c4)CNC5)cc(Cl)cc3[nH]2)c1O and report it.
4.44

Find the recorded IC50 belonging to Cc1ccccc1-c1nc2c(C(=O)Nc3ccc4c(c3)CNC4)cc(F)cc2[nH]1 and report it.
2.2

Find the recorded IC50 belonging to N#Cc1cc2c(cc1NC(=O)c1cc(F)cc3[nH]ncc13)CNC2 and report it.
5.39

Find the recorded IC50 belonging to Cc1c(C(=O)Nc2cc(-c3cccnc3)ccn2)cc(C2CC2)n1C and report it.
6.22

Find the recorded IC50 belonging to NCc1cccc(-c2csc3cc(C(=O)Nc4ccc5c(c4)CNC5)ccc23)c1 and report it.
29.8

Find the recorded IC50 belonging to O=C(Nc1cc2c(c(C3=CCOCC3)c1)CNC2)c1cc(F)cc2[nH]ncc12 and report it.
8.47

Value source: ChEMBL document CHEMBL5604065
